System: human PPARγ receptor (Homo sapiens, UniProt P37231)
Construct: expressed in transfected cells; host or cells: CV-1 cells, pSG5-based Gal4-PPAR expression vector
Sequence (P37231 204-505): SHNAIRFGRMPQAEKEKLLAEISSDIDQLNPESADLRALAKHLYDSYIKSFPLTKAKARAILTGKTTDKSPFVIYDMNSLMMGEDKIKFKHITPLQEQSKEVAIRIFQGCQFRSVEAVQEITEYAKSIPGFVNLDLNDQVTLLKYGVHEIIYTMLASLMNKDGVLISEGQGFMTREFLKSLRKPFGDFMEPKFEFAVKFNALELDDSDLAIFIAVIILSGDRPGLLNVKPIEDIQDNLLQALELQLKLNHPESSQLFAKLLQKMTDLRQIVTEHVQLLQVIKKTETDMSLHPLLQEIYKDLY
Test Method Notes: Luciferase assay using human PPARγ receptor (Gal4 chimera, CV-1 cells)
Type: cell-based
Protocol Conditions: 24 h, 0.1 μM, luciferase activity of Pioglitazone at 1 μM = 100, read-out: PPARγ agonist activity, Relative activity
Counter-ions that a name gives are not always drawn.
For each entry below, report its Emax at 0.1 µM value.

Study these solved cases before continuing.
COc1cc2cc(CC(C)(Oc3ccc(C(=N)N4CCOCC4)cc3)C(=O)O)sc2cc1OC (stereo not shown) [Example 5, Hydrochloride]	0.3%
CCOC(=O)C(C)(Cc1cc2cc(OC)c(OC)cc2s1)Oc1ccc(C#N)cc1 (stereo not shown)	0.4%
CCOC(=O)C(C)(Cc1cc2ccccc2s1)C(N)=O (stereo not shown)	0.3%

# input compound: COc1cc2cc(CC(C)(Oc3ccc(C(C)C)cc3)C(=O)O)sc2cc1OC (stereo not shown) ; wanted: its Emax at 0.1 µM
9.5%
